Tested on: PPARg:RXRa DBDmut IVT, anti-RXR (DBD mutation: RXRa K156A/R161A, NR concentration 270 nM, RXRa partner concentration 90 nM)
assayMethodText: PBM binding z-score (relative to random genomic background probes); higher = stronger binding; sequences stand for … in GC…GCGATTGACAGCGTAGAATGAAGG
Classes based on PBM binding z-score: low: < 1; intermediate: ≥ 1 and < 3; high: ≥ 3

macromoleculesequence=TCATATAGGTAAACAGGTGAAAGCCCGTAAGTTA cat=high
macromoleculesequence=TCATATAGGTAAATGCTATGTGAAAGTCCGATCT cat=high
macromoleculesequence=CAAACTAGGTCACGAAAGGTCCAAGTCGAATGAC cat=high
macromoleculesequence=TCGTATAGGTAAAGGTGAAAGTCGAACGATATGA cat=intermediate
macromoleculesequence=CAAACTAGGACACGAAAGGTCAAAGTCGAATGAC cat=high

Band assignment needed for `TAGCCCAGGTCATGCGGGCCAGTATAGTGTCGGC` please.
low

----------
Test system: THRa:RXRa (NR concentration 90 nM, RXRa partner concentration 90 nM)
assayMethodText: PBM binding z-score (relative to random genomic background probes); higher = stronger binding; sequences stand for … in GC…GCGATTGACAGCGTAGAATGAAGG
Hi there, I'd appreciate the recorded PBM binding z-score for every entry that follows.
One number for each entry.

Hi there! I need PBM binding z-score for each item below, if you can.
1. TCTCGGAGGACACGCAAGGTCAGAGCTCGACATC
2. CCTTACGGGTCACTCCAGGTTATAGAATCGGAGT
3. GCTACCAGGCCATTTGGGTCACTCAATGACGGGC

1: 4.25; 2: 5.18; 3: 2.21

Hi there! I need PBM binding z-score for each item below, if you can.
1. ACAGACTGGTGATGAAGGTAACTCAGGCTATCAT
2. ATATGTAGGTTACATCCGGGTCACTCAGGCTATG
3. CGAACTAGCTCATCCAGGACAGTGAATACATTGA

[0.478, 3.94, 1]

----------
Hi there, I'd appreciate the recorded PBM binding z-score for every entry that follows.
Tested on: RXRa DBDmut IVT, anti-RXR (DBD mutation: RXRa K156A/R161A, NR concentration 90 nM)
assayMethodText: PBM binding z-score (relative to random genomic background probes); higher = stronger binding; sequences stand for … in GC…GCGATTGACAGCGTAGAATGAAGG

macromoleculesequence=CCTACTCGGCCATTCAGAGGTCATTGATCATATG measurementtarget="RXRa DBDmut IVT, anti-RXR (DBD mutation: RXRa K156A/R161A, NR concentration 90 nM)" metric="PBM binding z-score" endpointresult=2
macromoleculesequence=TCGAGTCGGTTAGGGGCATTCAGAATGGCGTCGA measurementtarget="RXRa DBDmut IVT, anti-RXR (DBD mutation: RXRa K156A/R161A, NR concentration 90 nM)" metric="PBM binding z-score" endpointresult=0.196

For the sequence `GGAACGAGGGCATGCGAGTTGATAGCATGGCGAT` , what PBM binding z-score is on record?
2.03

----------
Tested on: PXR:RXRa (NR concentration 270 nM, RXRa partner concentration 90 nM)
assayMethodText: PBM binding z-score (relative to random genomic background probes); higher = stronger binding; sequences stand for … in GC…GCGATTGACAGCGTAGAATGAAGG
// f strictly below 3 in PBM binding z-score; t otherwise

These solved cases illustrate the format of a correct answer.
macromoleculesequence=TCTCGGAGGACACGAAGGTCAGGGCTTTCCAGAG cat=f
macromoleculesequence=TTACCAATGTGAGCTGAGGTCGTTGATCCAACTC cat=f
macromoleculesequence=CCAGACAGGTGAAAGGTAACTCTGTCTGGTACGC cat=f
macromoleculesequence=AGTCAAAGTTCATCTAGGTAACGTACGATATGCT cat=t
macromoleculesequence=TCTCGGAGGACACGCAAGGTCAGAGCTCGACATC cat=f
macromoleculesequence=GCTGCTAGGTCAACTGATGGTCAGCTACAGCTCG cat=f
macromoleculesequence=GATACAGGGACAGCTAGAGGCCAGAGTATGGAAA cat=f
macromoleculesequence=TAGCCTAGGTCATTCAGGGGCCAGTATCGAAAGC cat=f

Could you tell me if the measured PBM binding z-score of `TTCCCAAGGTGAAAGGTCGTTGATGCACGCCTTG` reaches 3 or more?
t

Could you tell me if the measured PBM binding z-score of `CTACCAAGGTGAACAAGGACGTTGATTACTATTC` reaches 3 or more?
f

Could you tell me if the measured PBM binding z-score of `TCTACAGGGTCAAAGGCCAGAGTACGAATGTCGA` reaches 3 or more?
t

Could you tell me if the measured PBM binding z-score of `CCTTACGGGTCAAGGTTATAACACGGGTGGTACG` reaches 3 or more?
t

Could you tell me if the measured PBM binding z-score of `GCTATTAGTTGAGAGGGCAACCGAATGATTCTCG` reaches 3 or more?
f

Could you tell me if the measured PBM binding z-score of `TGTTGTAGATCAGCAGGTTAAGAAAGCTGGCCAA` reaches 3 or more?
f

Could you tell me if the measured PBM binding z-score of `ACTATTAGTTGACTTAGGGCAGCCGATACGACGC` reaches 3 or more?
f
